Values compiled from BindingDB's records for doi:10.1016/S1074-5521(01)00067-9.

System Under Test: Thymidylate synthase (Homo sapiens, UniProt P04818)
Sequence (P04818 whole entry): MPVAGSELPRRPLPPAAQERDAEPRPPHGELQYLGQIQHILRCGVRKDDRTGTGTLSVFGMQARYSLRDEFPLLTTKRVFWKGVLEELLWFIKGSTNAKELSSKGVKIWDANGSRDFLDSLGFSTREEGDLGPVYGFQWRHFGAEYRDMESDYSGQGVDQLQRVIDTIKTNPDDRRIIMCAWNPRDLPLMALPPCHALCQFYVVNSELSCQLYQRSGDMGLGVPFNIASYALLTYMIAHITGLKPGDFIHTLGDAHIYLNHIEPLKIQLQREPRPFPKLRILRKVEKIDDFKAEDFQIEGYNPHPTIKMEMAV
Reported Endpoint: pIC50
Worth noting: pIC50 values are minus log10 of concentrations stated in mol/L.

Query :: Form: Entry = CN(C)c1cccc2c(S(=O)(=O)Oc3ccc(CC(N)C(=O)O)cc3)cccc12 [Dansyl derivatives 1A, (S) isomer] | System = Thymidylate synthase (Homo sapiens, UniProt P04818) | pIC50 = ____
Result :: 3.11
